These data points were gathered from PubChem BioAssay (NCI).

- Test system: LOX IMVI melanoma
- Measurement Protocol: NCI tumour cell line growth inhibition, 48 h
# Lookup of reported TGI keyed by entry
Measured Metric: TGI

Smiles Structure: COc1cc([C@@H]2c3cc4c(cc3[C@H](OC(C)=O)[C@H]3COC(=O)[C@H]23)OCO4)cc(OC)c1OC
Test Target: LOX IMVI melanoma
Measured Metric: TGI
Result Value: > 100 µM

Smiles Structure: O=C1/C(=C/c2ccccc2Br)COc2ccc(O)c(O)c21
Test Target: LOX IMVI melanoma
Measured Metric: TGI
Result Value: 2.32 µM

Smiles Structure: CC(C)(C)N1CC(OC(N)=O)C1
Test Target: LOX IMVI melanoma
Measured Metric: TGI
Result Value: > 100 µM

Smiles Structure: CC1(C)N=C(/C=N/O)C(C)(C)N1O
Test Target: LOX IMVI melanoma
Measured Metric: TGI
Result Value: > 100 µM

Smiles Structure: O=C1CCCCC[C@]12SC[C@H]1CON=C12
Test Target: LOX IMVI melanoma
Measured Metric: TGI
Result Value: > 100 µM

Smiles Structure: CC(C)NC(=O)OCc1c(COC(=O)NC(C)C)c(-c2ccc[n+](COC(=O)C3CC3)c2)n2c1CCC2
Test Target: LOX IMVI melanoma
Measured Metric: TGI
Result Value: > 100 µM

----------
- System: TK-10 renal
- Measurement Protocol: NCI tumour cell line growth inhibition, 48 h
# Lookup of reported TGI keyed by entry

Molecule: O=C(N/N=C\c1ccc([N+](=O)[O-])cc1)c1ccccc1Nc1ccccc1C(=O)N/N=C/c1ccc([N+](=O)[O-])cc1
Inequality Symbol: >
TGI / µM: 100

Molecule: COc1ccc(-c2csc(NC(=O)N3CCN(c4cc5c(cc4F)c(=O)c(C(=O)O)cn5C4CC4)CC3)n2)cc1
Inequality Symbol: =
TGI / µM: 37

Molecule: Cc1ccc(S(=O)(=O)/N=C(\[O-])C2=C(c3ccccc3)NN(C)c3nc4cccc[n+]4nc32)cc1
Inequality Symbol: >
TGI / µM: 100

Molecule: Nc1nc(N)c2nnn(C[C@H]3CC[C@@H](CO)C3)c2n1
Inequality Symbol: >
TGI / µM: 100

Molecule: O=C1/C(=C/c2ccccc2Br)COc2ccc(O)c(O)c21
Inequality Symbol: =
TGI / µM: 4.09

Molecule: COc1cccc2c1C(=O)c1c(O)c3c(c(O)c1C2=O)C[C@@](O)(/C(C)=N/NC(=O)c1ccccc1)C[C@@H]3OC1CC(N)C(O)C(C)O1 (some centres undefined)
Inequality Symbol: =
TGI / µM: 5.85

Molecule: Cc1ccc2cccc3c2c1CC1(C3=O)S(=O)(=O)OCCOS1(=O)=O
Inequality Symbol: >
TGI / µM: 100

Molecule: CN(C)Cc1cccc(CN(C)C)[c]1[Sn]([Br])([c]1ccccc1)[c]1ccccc1
Inequality Symbol: =
TGI / µM: 46.9

Molecule: CC1Cc2c(N)nc(N3CCOCC3)nc2NC1=O (centres undefined)
Inequality Symbol: >
TGI / µM: 100

----------
- System: LOX IMVI melanoma
- Measurement Protocol: NCI tumour cell line growth inhibition, 48 h; in the data active = GI50 below about 0.43 µM; inactive = the rest
Outcomes: active, inactive

Compound: O=C1C=C(N2CC2)C(=O)C=C1N1CC1
Test Target: LOX IMVI melanoma
Discrete Label: active

Compound: COc1ccc(Cl)cc1NC(=O)c1c(NC(=O)C(F)(F)C(F)(F)F)sc2c1CCCCC2
Test Target: LOX IMVI melanoma
Discrete Label: inactive

Compound: Oc1cccc(Cn2c(-c3cccc(O)c3O)nc3ccccc32)c1O
Test Target: LOX IMVI melanoma
Discrete Label: inactive

Compound: N=C1C(c2nc3ccccc3s2)=C(O)CN1c1ccc(Cl)cc1Cl
Test Target: LOX IMVI melanoma
Discrete Label: inactive

Compound: COc1cccc(-c2nc(-c3ccc(NC(=O)c4ccccc4)cc3)[nH]c2-c2ccnc(Br)c2)c1
Test Target: LOX IMVI melanoma
Discrete Label: inactive

Compound: CC1OC(O[C@H]2/C=C/C=C/C=C/C=C/C=C/C=C/C=C/[C@H](C)[C@@H](O)[C@@H](C)[C@H](C)OC(=O)C[C@H](O)C[C@H](O)CC[C@@H](O)[C@H](O)C[C@H](O)C[C@]3(O)C[C@H](O)[C@@H](C(=O)O)[C@H](C2)O3)C(O)C(N)C1O (some centres not stated)
Test Target: LOX IMVI melanoma
Discrete Label: inactive

Compound: CCn1cc(C(=O)N/N=C/c2cccc(F)c2)c(=O)c2cc(F)c(N3CCNC(C)C3)c(F)c21 (configuration not stated)
Test Target: LOX IMVI melanoma
Discrete Label: inactive

----------
- Test system: CCRF-CEM leukemia
- Measurement Protocol: NCI tumour cell line growth inhibition, 48 h
Measured Metric: TGI (µM)

Compound: CCOC(=O)/C=C(\N=P(c1ccccc1)(c1ccccc1)c1ccccc1)C(F)(F)C(F)(F)C(F)(F)C(F)(F)C(F)(F)F
Test Target: CCRF-CEM leukemia
Inequality Symbol: >
Result Value: 100

Compound: ClC1(c2ccccc2)c2ccc(Br)cc2-c2cc(Br)ccc21
Test Target: CCRF-CEM leukemia
Inequality Symbol: >
Result Value: 100

Compound: O=C(/C=C/c1cccs1)c1cccc(C(=O)/C=C/c2cccs2)n1
Test Target: CCRF-CEM leukemia
Inequality Symbol: =
Result Value: 8.51

Compound: COc1ccc(C2SCC(=O)N2NC(=O)C(C)Oc2ccccc2Cl)cc1 (stereo not given)
Test Target: CCRF-CEM leukemia
Inequality Symbol: =
Result Value: 79.6

Compound: O=c1[nH]c2ccc(CC(=S)N3CCN(c4ccccc4)CC3)cc2o1
Test Target: CCRF-CEM leukemia
Inequality Symbol: >
Result Value: 100

----------
- Test system: MDA-N
- Measurement Protocol: NCI tumour cell line growth inhibition, 48 h
Measured Metric: TGI

Molecule: CC[C@@]1(O)C(=O)OCc2c1cc1n(c2=O)Cc2c-1nc1ccccc1c2/C=N\NC(=O)C(N)Cc1cnc[nH]1 (stereo partly specified)
Result Value: > 100 µM
//
Molecule: O=C(NCCCCNCCCNC(=O)c1cc(-c2ccccc2)nc2ccccc12)c1cc(-c2ccccc2)nc2ccccc12
Result Value: 3.23 µM
//
Molecule: Cc1ccc2cccc3c2c1CC1(C3=O)S(=O)(=O)OCCOS1(=O)=O
Result Value: > 100 µM
//
Molecule: N#Cc1nn(C2OC(COC(=O)c3ccccc3)C(OC(=O)c3ccccc3)C2OC(=O)c2ccccc2)c2nc[nH]c(=O)c12 (stereo unspecified)
Result Value: > 100 µM
//
Molecule: C=Cc1cc2c(cc1O)CC[C@@H]1[C@@H]2CC[C@]2(C)[C@@H](O)CC[C@@H]12
Result Value: 7.76 µM
//
Molecule: CC(=O)NNC(=S)/N=C/c1c(O)cc(C)oc1=O
Result Value: > 100 µM

----------
- Tested on: BT-549 breast
- Measurement Protocol: NCI tumour cell line growth inhibition, 48 h; in the data active = GI50 below about 0.43 µM; inactive = the rest
Outcomes: active, inactive

Molecule: COc1cc([C@@H]2c3cc4c(cc3[C@H](OC(C)=O)[C@H]3COC(=O)[C@H]23)OCO4)cc(OC)c1OC
Test Target: BT-549 breast
Discrete Label: active

Molecule: C#Cc1cccc(Nc2ncnc3ccc(-c4cnc(Cl)c(NS(C)(=O)=O)c4)cc23)c1
Test Target: BT-549 breast
Discrete Label: active

Molecule: CCn1cc(C(=O)N/N=C/c2cccc(F)c2)c(=O)c2cc(F)c(N3CCNC(C)C3)c(F)c21 (stereo not given)
Test Target: BT-549 breast
Discrete Label: inactive

Molecule: Cc1cccc2c1NC(=O)[C@@]21[C@H](C(=O)c2ccccc2)[C@]2(C(=O)Nc3ccccc32)[C@H]2CCCN21
Test Target: BT-549 breast
Discrete Label: inactive

Molecule: Oc1ccc2ccccc2c1N=Nc1ccccn1
Test Target: BT-549 breast
Discrete Label: inactive

Molecule: N/C(=N\c1nc2ccccc2s1)NC(=O)Nc1ccccc1Cl
Test Target: BT-549 breast
Discrete Label: active

Molecule: Oc1cccc(Cn2c(-c3cccc(O)c3O)nc3ccccc32)c1O
Test Target: BT-549 breast
Discrete Label: inactive

Molecule: O=C(Nc1ccc(Cl)cc1)c1cc2cc(F)ccc2cc1O
Test Target: BT-549 breast
Discrete Label: inactive

Molecule: O=C1/C(=C/c2ccccc2Br)COc2ccc(O)c(O)c21
Test Target: BT-549 breast
Discrete Label: inactive

Molecule: O=C1c2cccc3cc([N+](=O)[O-])cc(c23)C(=O)N1CCN1CCCC1
Test Target: BT-549 breast
Discrete Label: inactive

Molecule: O=C1/C(=C/c2ccccc2)CN(CCC(=O)N2C/C(=C\c3ccccc3)C(=O)/C(=C/c3ccccc3)C2)C/C1=C\c1ccccc1
Test Target: BT-549 breast
Discrete Label: inactive

Molecule: CCC1CCCCN1C(=S)N/N=C(\C)c1ccccn1 (stereo not given)
Test Target: BT-549 breast
Discrete Label: active

Molecule: CN(C)c1ccc2cc(-c3cc4c(oc3=O)-c3ccccc3OC4O)c(=O)oc2c1 (stereo not given)
Test Target: BT-549 breast
Discrete Label: inactive

Molecule: O=C1C=C(N2CC2)C(=O)C=C1N1CC1
Test Target: BT-549 breast
Discrete Label: active

Molecule: COc1cc2c(=O)n(CCCn3ccnc3)c3c4cc5c(cc4ccc3c2cc1OC)OCO5
Test Target: BT-549 breast
Discrete Label: inactive
